# Test system: K562
# test_description: NCI tumour cell line growth inhibition, 48 h
The source made the active and inactive calls. Cut-off read from the data, not from the text of the source: active = GI50 up to about 1.1 µM and inactive = higher.
Labels: T for active, F for inactive

>>> qualitative_label("CC(=O)C1=C(C)NC2C=CC=CN12 (stereo unspecified)")
"F"
>>> qualitative_label("O=C1N=C(Nc2ccccc2Cl)SC1C(=O)Nc1ccc([N+](=O)[O-])cc1[N+](=O)[O-] (stereo unspecified)")
"F"
>>> qualitative_label("COc1ccc(S(=O)(=O)O)cc1-n1nc(C(=O)Nc2ccccc2)n[n+]1-c1cc(S(=O)(=O)[O-])ccc1OC")
"F"
>>> qualitative_label("O=C(O)c1ccc(CNCc2ccccc2)cc1")
"F"
>>> qualitative_label("C#C[C@]1(O)CC[C@H]2[C@@H]3CCC4=C/C(=N/CCOC(=O)c5cccc6c(=O)c7ccccc7[nH]c56)CC[C@@H]4[C@H]3CC[C@@]21C")
"F"
>>> qualitative_label("CCOC(=O)NC(=O)c1cn(CCCOC(=O)CCCCCCCCCCC(=O)OCCCn2cc(C(=O)NC(=O)OCC)c(=O)n(C)c2=O)c(=O)n(C)c1=O")
"F"
>>> qualitative_label("OC(C/C(=N\\N=C(/CC(O)(C(F)(F)F)C(F)(F)F)c1ccccc1)c1ccccc1)(C(F)(F)F)C(F)(F)F")
"F"
>>> qualitative_label("CCc1cccc(C(C)C)c1C1C(=O)C(=O)N(c2nc3ccccc3s2)C(=O)C1=O")
"F"
>>> qualitative_label("O=C1Sc2ccccc2C(=O)N2CSCC12 (stereo unspecified)")
"F"
>>> qualitative_label("O=C(O)c1nn[nH]c1S")
"F"
>>> qualitative_label("Cc1ccc(C(=O)N/N=C(\\N=N\\c2cccc([N+](=O)[O-])c2)c2ccc(N(C)C)cc2)cc1")
"F"
>>> qualitative_label("COc1cc(/C=C(\\NC(=O)c2ccccc2)c2nc3c(O)nc(S)nc3[nH]2)cc(OC)c1OC")
"F"
>>> qualitative_label("Cc1cccc(NC(N)=S)c1")
"F"
>>> qualitative_label("COc1ccccc1OCC(=N/NC(=O)c1ccncc1)/N=C/c1ccncc1")
"F"
>>> qualitative_label("O=C1C/C(=C/c2ccc(/C=C3/CC(=O)N(c4cccc(Br)c4)C3=O)cc2)C(=O)N1c1cccc(Br)c1")
"F"
>>> qualitative_label("O=C(c1ccccc1)[C@H]1Nc2ccc(Cl)cc2[C@H]2c3ccccc3O[C@H]21")
"F"
>>> qualitative_label("COc1cc(NCCC2CCCCN2)c2ncccc2c1 (stereo unspecified)")
"F"
>>> qualitative_label("C=C1C(=O)C=C2C=C3C(=O)C(C)(C)C[C@]3(O)C12C (stereo partly specified)")
"T"
>>> qualitative_label("C#CCn1c(=O)c2cc(OC)c(OC)cc2n(CC#C)c1=O")
"F"
>>> qualitative_label("CO[C@H]1CC[C@]2(C)C3=CC[C@@]4(C)C(CC[C@@H]4C(C)CC[C@@H](C)C(C)C)C(=CCC2C1)O3 (stereo partly specified)")
"F"
>>> qualitative_label("O=C1C(=Cc2ccc(O)cc2)N=C(c2ccccc2)N1n1c(-c2ccccc2)nc2ccccc2c1=O")
"F"
>>> qualitative_label("C#C[C@@]1(O)CCCC2=CC(=O)C[C@]21C")
"F"
>>> qualitative_label("Cc1cc(C)c(C2=NOC(c3ccccc3)(c3cc(=O)n(-c4ccccc4)s3)O2)c(C)c1 (stereo unspecified)")
"F"
>>> qualitative_label("CCCCCCCCc1cc2c(O)c(c1)Cc1cc(CCCCCCCC)cc(c1O)Cc1cc(CCCCCCCC)cc(c1O)Cc1cc(CCCCCCCC)cc(c1O)Cc1cc(CCCCCCCC)cc(c1O)Cc1cc(CCCCCCCC)cc(c1O)C2")
"F"
>>> qualitative_label("N=c1oc2ccccc2cc1C(=O)NC12CC3CC(CC(C3)C1)C2")
"F"
>>> qualitative_label("C1=C[C@@H]2c3ccc4cnccc4c3NC[C@@H]2C1")
"F"
>>> qualitative_label("O=C(NN1C(=O)C(Cl)C1c1ccc(O)cc1)c1ccccc1O (stereo unspecified)")
"F"
>>> qualitative_label("CCOc1ccc(NCC2CC/C(=C\\c3ccccc3OC)C2=O)cc1 (stereo unspecified)")
"F"
>>> qualitative_label("N#Cc1c(-c2ccco2)cc(-c2ccc(NCc3nc4ccccc4[nH]3)cc2)nc1N")
"F"
>>> qualitative_label("COc1c(-c2cccs2)oc2c(CC(=O)O)cccc2c1=O")
"F"
>>> qualitative_label("CC(C)/C=C1\\CCC(CN2CCCC2)C1=O (stereo unspecified)")
"F"
>>> qualitative_label("O=c1[nH]c(=S)[nH]cc1CN1CCOCC1")
"F"
>>> qualitative_label("C=CC(CBr)CCC(Br)C(C)(C)Br (stereo unspecified)")
"F"
>>> qualitative_label("C=CCC(OCCOCC)c1cc(OCCOCC)ccc1OC (stereo unspecified)")
"F"
>>> qualitative_label("C/C=C/C=C/[C@H]1Cc2cc(O)cc(O)c2O1")
"F"
>>> qualitative_label("Nc1cccc2c1-c1c(cccc1[N+](=O)[O-])C2=O")
"F"
